# key: entry, value: Antioxidant capacity (ORAC)
# method: ORAC (oxygen radical absorbance capacity) assay
# study.conditions: pure compounds, Table 13
# Description: The antioxidant capacity of the Centipeda fractions was measured using the ORAC procedure (Oxygen Radical Absorbance Capacity). A water soluble analogue of vitamin E, Trolox, was used as a reference standard, and the ORAC value is expressed as μmol of trolox equivalence (TE) per gram of sample extract. […] Briefly, 10 μL fluorescein (6.0×10^−7 M), 20 μL samples/standards/control/blank (A:W:A) and 170 μL […] (20 mM) were added per well. […] The fluorescence readings were referenced to solvent blank wells. […]

[
  {
    "compound": "COc1c(O)cc2oc(-c3ccc(O)cc3O)c(OC3OC(CO)C(O)C(O)C3O)c(=O)c2c1O (single isomer, unassigned) [Compound 1]",
    "Antioxidant capacity (ORAC)": "12178 TE/g extract"
  },
  {
    "compound": "COC(=O)/C(O)=C/C(OC(=O)/C=C/c1ccc(O)c(O)c1)C(OC(=O)/C=C/c1ccc(O)c(O)c1)C(O)C(=O)O (centres unmarked) [Compound 9]",
    "Antioxidant capacity (ORAC)": "6822 TE/g extract"
  },
  {
    "compound": "COC(=O)/C(O)=C/C(OC(=O)/C=C/c1ccc(O)c(O)c1)C(OC(=O)/C=C/c1ccc(O)c(O)c1)C(O)C(=O)OC (centres unmarked) [Compound 10]",
    "Antioxidant capacity (ORAC)": "3957 TE/g extract"
  },
  {
    "compound": "O=C(/C=C/c1ccc(O)c(O)c1)OC(/C=C(\\O)C(=O)O)C(OC(=O)/C=C/c1ccc(O)c(O)c1)C(O)C(=O)O (single isomer, unassigned) [Compound 2]",
    "Antioxidant capacity (ORAC)": "13781 TE/g extract"
  },
  {
    "compound": "COC(=O)C(O)C(OC(=O)/C=C/c1ccc(O)c(O)c1)C(/C=C(\\O)C(=O)O)OC(=O)/C=C/c1ccc(O)c(O)c1 (centres unmarked) [Compound 8]",
    "Antioxidant capacity (ORAC)": "8122 TE/g extract"
  }
]
